Tested on: SK-MEL-30;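 also: growth inhibition of SK-MEL-30 cells, determined with a cell viability assay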
Test: cells
Type: functional, cell-based
Settings: Homo sapiens
Description: SANGER: Inhibition of human SK-MEL-30 cell growth in a cell viability assay.
Measured Parameter: pIC50
Please express pIC50 as -log10 of the molar concentration.

Fc1cc(-c2cc[nH]/c(=N/c3ccc(-n4cnc(N5CCOCC5)n4)cc3)n2)cc(N2CCOCC2)c1; 6.23

// switching to the query compound
-- ask Determine from records and report pIC50 for `CC(C)=CC[C@@H](O)C1=CC(=O)c2c(O)ccc(O)c2C1=O`
-- reply 6.16

---

Tested on: D-392MG
Experiment: cells
Format: functional, cell-based
Conditions: Homo sapiens
Measured Parameter: IC50

Field: example entries. Status: answers known.
O=c1cc(N2CCOCC2)oc2c(-c3cccc4c3sc3ccccc34)cccc12; > 2 µM
N#C/C(=C1/Nc2ccccc2S1)c1ccnc(NCCc2cccnc2)n1; > 8 µM
O=c1[nH]c2ccccc2n1C1CCN(Cc2ccc(-c3nc4cc5[nH]cnc5cc4nc3-c3ccccc3)cc2)CC1; > 2.56 µM
Cc1ccc(NC(=O)c2cccc(C(C)(C)C#N)c2)cc1Nc1ccc2ncn(C)c(=O)c2c1; 0.356 µM

-- ask Determine from records and report IC50 for `NC(=O)c1ncn([C@@H]2O[C@H](COP(=O)(O)O)[C@@H](O)[C@H]2O)c1N`
-- reply > 2000 µM

-- ask Determine from records and report IC50 for `CNC(=O)c1ccccc1Sc1ccc2c(/C=C/c3ccccn3)n[nH]c2c1`
-- reply > 2 µM

---

System: NCI-H1755;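 also: cell viability readout used to measure growth inhibition of NCI-H1755 cells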
Experiment: cells
Type: functional, cell-based
Conditions: Homo sapiens
Description: SANGER: Inhibition of human NCI-H1755 cell growth in a cell viability assay.
pIC50: −log10 of the molar value.
Measured Parameter: pIC50

Field: example entries. Status: answers known.
CC(O)(CS(=O)(=O)c1ccc(F)cc1)C(=O)Nc1ccc(C#N)c(C(F)(F)F)c1 (stereo not given) [BICALUTAMIDE]; < 5.99
COc1cc(Nc2c(C#N)cnc3cc(OCCCN4CCN(C)CC4)c(OC)cc23)c(Cl)cc1Cl; < 5.70
Cn1cc(/C=C2\C(=O)Nc3cccnc32)c2ccccc21; < 5.70
O=c1[nH]c2ccccc2n1C1CCN(Cc2ccc(-c3nc4cc5[nH]cnc5cc4nc3-c3ccccc3)cc2)CC1; 5.98

// switching to the query compound
-- ask Determine from records and report pIC50 for `O=c1cc(N2CCOCC2)oc2c(-c3cccc4c3sc3ccccc34)cccc12`
-- reply < 5.70

---

Test system: NCI-H596;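 also: growth inhibition of NCI-H596 cells, read out with a cell viability assay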
Assay: cells
Type: functional, cell-based
Settings: Homo sapiens
Description: SANGER: Inhibition of human NCI-H596 cell growth in a cell viability assay.
pIC50: −log10 of the molar value.
Reported pIC50 values for the following molecules.

Field: example entries. Status: answers known.
CCCS(=O)(=O)Nc1ccc(F)c(C(=O)c2c[nH]c3ncc(Cl)cc23)c1F; < 5.00
Cn1c(=O)n(-c2ccc(C(C)(C)C#N)cc2)c2c3cc(-c4cnc5ccccc5c4)ccc3ncc21; 6.64

// switching to the query molecule
-- ask Determine from records and report pIC50 for `CC(=O)c1c(C)c2cnc(Nc3ccc(N4CCNCC4)cn3)nc2n(C2CCCC2)c1=O`
-- reply < 5.40

---

Test system: LB1047-RCC
Experiment: cells
Assay type: functional, cell-based
Conditions: Homo sapiens
Description: SANGER: Inhibition of human LB1047-RCC cell growth in a cell viability assay.
Measured Parameter: pIC50
Please express pIC50 as -log10 of the molar concentration.

Field: example entries. Status: answers known.
CCNC(=O)c1noc(-c2cc(C(C)C)c(O)cc2O)c1-c1ccc(CN2CCOCC2)cc1; 7.30
N#C/C(=C1/Nc2ccccc2S1)c1ccnc(NCCc2cccnc2)n1; 5.78

// switching to the query compound
-- ask Determine from records and report pIC50 for `CC[C@@]1(O)C(=O)OCc2c1cc1n(c2=O)Cc2cc3ccccc3nc2-1`
-- reply 8.10
